Biological target: T1, TNFR1 (Homo sapiens, UniProt P19438)
T1 chain: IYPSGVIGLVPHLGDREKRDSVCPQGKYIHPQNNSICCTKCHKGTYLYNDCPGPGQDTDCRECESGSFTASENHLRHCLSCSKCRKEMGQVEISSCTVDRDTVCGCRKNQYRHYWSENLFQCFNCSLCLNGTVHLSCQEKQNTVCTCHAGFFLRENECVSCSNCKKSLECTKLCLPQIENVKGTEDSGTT
Experiment: yeast display SC50
READOUT: apparent Kd (screen) (pM)
Write the value in pM as a bare number.

Query string: Fill blank: measured apparent Kd (screen) of the binder A94G (designed binder) MTLQELLREEALRRAEAEAFRYALELLAEKFPEQKEYLLDLAEEIESQIRSLSGVDVEDVRKFLDKEWAWVKELLAEHPAELAEVEAARAARLGELRAEVEAKVAA is ____.
Result string: 539

Query string: Subsequent entry: I49M (designed binder) MTLQELLREEALRRAEAEAFRYALELLAEKFPEQKEYLLDLAEEIESQMRSLSGVDVEDVRKFLDKEWAWVKELLAEHPAELAEVEAARAARLAELRAEVEAKVAA
Result string: 869

Query string: Subsequent entry: E77N (designed binder) MTLQELLREEALRRAEAEAFRYALELLAEKFPEQKEYLLDLAEEIESQIRSLSGVDVEDVRKFLDKEWAWVKELLANHPAELAEVEAARAARLAELRAEVEAKVAA
Result string: 490

Query string: Subsequent entry: K62Y (designed binder) MTLQELLREEALRRAEAEAFRYALELLAEKFPEQKEYLLDLAEEIESQIRSLSGVDVEDVRYFLDKEWAWVKELLAEHPAELAEVEAARAARLAELRAEVEAKVAA
Result string: 446
